Experiment: RAM signaling pathway blockade in yeast – S. cerevisiae, Pdr1DBD-CYC8 efflux-inhibited sensitized strain, primary screen (AID 1298);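 note: 0% = DMSO untreated cells without growth and 100% = 10 µM 1-NA-PP1 full growth; higher means more yeast growth rescued from 5-FOA killing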
Details: S. cerevisiae cbk1-as DSE1-URA3 strain, 5-FOA growth OD615, 2 d; at 50 µM; stronger effect = higher value
endpoint label: RAM network inhibition (%)
Expressed in %, but write only the number.

The following compounds have reported results that may help.
[
  {
    "compound": "CCOC(=O)N1CCN(C(=O)COc2ccc(S(=O)(=O)NC(C)C)cc2)CC1",
    "RAM network inhibition, %": 7.54
  },
  {
    "compound": "COCc1nnc(NC(=O)c2ccc(S(=O)(=O)N(C)c3ccccc3)cc2)o1",
    "RAM network inhibition, %": 4.65
  },
  {
    "compound": "O=C(NCC1CCCO1)c1ccc(CS(=O)(=O)c2ccc(Br)cc2)o1 (centres undefined)",
    "RAM network inhibition, %": 2.45
  },
  {
    "compound": "CCOC(=O)c1cc2c(=O)n3ccccc3nc2n(CCCOC)c1=NC(C)=O",
    "RAM network inhibition, %": 6.83
  }
]

-- ask Reported RAM network inhibition, compound CCOC(=O)c1cc2c(=O)n3ccccc3nc2n(CC2CCCO2)c1=NC(C)=O (centres undefined) : ____
-- reply 3.93

-- ask Ok, now COC(=O)Cn1c(=NC(=O)CSCC(=O)Nc2cc(C)on2)sc2ccccc21
-- reply 7.51

---

Assay: MRP1 drug-resistance reversers in H69AR cells – cell-based, doxorubicin co-treatment, pilot screen (AID 601)
Conditions: H69AR cells + 2 uM doxorubicin, CellTiter-Glo, 72 h; measured here: viability with 2 uM doxorubicin; at 10 µM; stronger effect = lower value
viability by entry:
Expressed in %, but write only the number.

The following molecules have reported results that may help.
[
  {
    "molecule": "Cc1ccc(-c2oc3ccccc3c(=O)c2O)cc1",
    "viability (%)": 74.5
  },
  {
    "molecule": "Cc1ccc(-c2cc(C(F)F)nc(N3CCC(C)CC3)n2)cc1",
    "viability (%)": 89.7
  },
  {
    "molecule": "CCc1ccccc1N1CC23C=CC(O2)C(C(=O)O)C3C1=O (configuration not stated)",
    "viability (%)": 89.3
  },
  {
    "molecule": "CCCSc1nc2c(cnn2-c2ccc(C)cc2)c(=O)[nH]1",
    "viability (%)": 22.6
  }
]

-- ask Reported viability, molecule COc1ccccc1C(=O)NCCc1nc2ccccc2n1C : ____
-- reply 95

-- ask Ok, now Cn1cc(C2NC(=O)c3c(sc4c3CCCC4)N2)c2ccccc21 (configuration not stated)
-- reply 60.4

-- ask Ok, now Cn1cnc2cc(NC(=O)c3ccc(Cl)cc3)ccc21
-- reply 95.2

-- ask Ok, now O=C(NC1CCCc2ccccc21)c1ccc(CNc2c(N3CCOCC3)c(=O)c2=O)cc1 (configuration not stated)
-- reply 77.5

-- ask Ok, now CCOC(=O)C1CCN(Cc2ccc(F)c(Br)c2)CC1
-- reply 92.8

-- ask Ok, now Cc1c(C#N)c2ccccc2n1CC(=O)N1CCc2ccccc2C1
-- reply 92.2

-- ask Ok, now COc1cc2c(cc1OC)C(c1ccc(C)o1)CC(=O)N2 (configuration not stated)
-- reply 80

-- ask Ok, now FC(F)(F)c1cc(-c2ccco2)nc(NCc2ccco2)n1
-- reply 77.8

-- ask Ok, now Cc1c(Cl)cccc1NC(=O)CCN1CCCCC1
-- reply 94.9

-- ask Ok, now CC(=NCC1CCNCC1)C1=C(O)CC(C)(C)CC1=O
-- reply 92.4

-- ask Ok, now Clc1cccc(-c2nnc(-c3ccccc3)o2)c1
-- reply 80.7

-- ask Ok, now Cc1ccccc1NC(=O)C1CCCN(S(=O)(=O)c2cccc3cccnc23)C1 (configuration not stated)
-- reply 92.2

-- ask Ok, now CCn1cc(C(=O)NCCCOC)c(=O)c2cc(S(=O)(=O)N(C)C)ccc21
-- reply 111
